Provenance of the data: patent US8183281B2

- tested-on: Human CXCR2 Receptor (Homo sapiens)
- Construct: purchased Biosignal Packard Inc; host or cells: Chinese hamster ovary cells (CHO-K1), membranes
- Sequence (P25025 whole entry): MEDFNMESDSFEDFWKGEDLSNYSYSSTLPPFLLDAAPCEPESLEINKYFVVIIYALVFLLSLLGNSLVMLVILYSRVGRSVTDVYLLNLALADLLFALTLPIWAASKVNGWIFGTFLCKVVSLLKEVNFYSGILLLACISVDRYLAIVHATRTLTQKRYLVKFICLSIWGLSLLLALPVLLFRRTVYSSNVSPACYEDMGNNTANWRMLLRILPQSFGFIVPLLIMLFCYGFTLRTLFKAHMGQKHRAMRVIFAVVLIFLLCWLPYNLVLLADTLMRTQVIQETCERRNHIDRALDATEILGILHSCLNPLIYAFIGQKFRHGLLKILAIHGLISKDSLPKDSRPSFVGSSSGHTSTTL
- experiment-notes: [35S]-GTPγS binding assay for human CXCR2 receptor using SPA technology
- Format: biochemical
- condition-description: CHO-K1 membranes expressing human CXCR2; 100 nM IL-8 stimulated; read-out: IC50 values in the [35S]-GPTγS binding assay
pIC50: −log10 of the molar value.
readout: pIC50

I = O=c1c(Nc2ccc(Cl)c(S(=O)(=O)N3CCOCC3)c2O)c(NC2CCSC2)c1=O (centres unmarked) [Example 7]
II = CC[C@@H](Nc1c(Nc2ccc(Cl)c(S(=O)(=O)N3CCCC3)c2O)c(=O)c1=O)[C@H]1CC[C@@H](C)O1 [Example 17]
// task: argmin of pIC50 over [ I , II ] Answer by quoting the chosen item's label. II
(II: 7.24, I: 7.66)
